Reference source: patent US10093630B2

Parameter inhibition at 10 µM: see the listing below.
- TARGET_DESC: FAAH (Mus musculus)
- Construct: Proteomes (mouse brain membrane fraction or cell lysates); from tissue; host or cells: mouse brain membrane fraction (or cell lysates, not specified)
- Sequence (O08914 1-579): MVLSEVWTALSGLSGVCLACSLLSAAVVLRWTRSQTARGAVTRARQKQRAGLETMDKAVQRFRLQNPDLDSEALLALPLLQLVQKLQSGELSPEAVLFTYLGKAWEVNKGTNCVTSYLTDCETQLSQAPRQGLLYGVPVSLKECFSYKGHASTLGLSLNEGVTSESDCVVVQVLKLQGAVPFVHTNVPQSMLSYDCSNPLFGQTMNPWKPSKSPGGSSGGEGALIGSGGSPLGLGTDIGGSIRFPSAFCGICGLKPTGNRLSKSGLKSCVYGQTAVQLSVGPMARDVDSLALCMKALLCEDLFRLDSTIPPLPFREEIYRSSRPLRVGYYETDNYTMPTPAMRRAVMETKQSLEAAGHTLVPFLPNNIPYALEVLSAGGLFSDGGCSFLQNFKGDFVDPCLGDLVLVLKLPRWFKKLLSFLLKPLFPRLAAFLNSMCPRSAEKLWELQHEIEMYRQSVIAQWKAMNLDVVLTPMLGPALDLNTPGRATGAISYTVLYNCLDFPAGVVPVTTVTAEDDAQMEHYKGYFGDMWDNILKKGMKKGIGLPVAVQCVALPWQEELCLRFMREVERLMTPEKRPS
- RUN_DESCRIPTION: In vitro competitive activity-based protein profiling (gel-based, FP-Rh or HT-01 probe)
- Assay type: biochemical
- STATED_CONDITIONS: 10 μM inhibitor; read-out: % Inhibition at 10 μM, B = FAAH

INSERT INTO assay_data (compound_smiles, measurement_type, meas_value) VALUES
  ('Cc1cnn(C(=O)N2CCN(Cc3ccc(OCc4ccccc4)cc3)CC2)c1', 'inhibition at 10 µM', '> 75%');

Give reported inhibition at 10 µM value for O=C(N1CCN(Cc2c(N3CCCC3)cccc2C(F)(F)F)CC1)n1cc(-c2ccccc2)cn1 > 75%

Give reported inhibition at 10 µM value for Cc1ccccc1-c1cnn(C(=O)N2CCN(Cc3c(N4CCCC4)cccc3C(F)(F)F)CC2)c1 25 to 75%

Give reported inhibition at 10 µM value for CC(=O)N(C)CCN(C)C(=O)n1cc(C#N)cn1 > 75%
